Data origin: the supplement of paper PMC10724198

- System: Saccharomyces cerevisiae;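 further: PSI is a weighted mean of sequencing reads over stability bins, variants kept only with over 10 reads, mCherry proximal and sfGFP distal, peptide attached via GGGS linker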
- EXPERIMENT_NOTES: protein stability index of tFT-peptide fusion (C-terminal peptide) (PSI (0-1 scale)); higher = more stable (slower turnover)
- RUN_CONDITIONS: genetic background: das1 deletion; temperature: 30 C
EXPERIMENTAL_ENDPOINT: protein stability index
I only need the number, thanks.

Fill in: protein stability index of `VFSFLYHVVPVL` is ___
0.36

Field entry: `VCCYILFFLFPV`
0.349

Field entry: `CFVRCFVSIRLF`
0.163

Field entry: `WQGLSGSPILVI`
0.247

Field entry: `GWWCGIGVAVSV`
0.337

Field entry: `APLLPPALALTC`
0.389

Field entry: `GVCWCVLFVVGC`
0.271

Field entry: `GVCLGFICVGFC`
0.359

Field entry: `VCWVYESWKCLA`
0.536

Field entry: `CGGLFDVALGVG`
0.449

Field entry: `ACSRKPIWVTWL`
0.648

Field entry: `YLRVRRPGSALV`
0.63

Field entry: `YRNVLLVLNYWS`
0.428

Field entry: `FLLYRFSLVGCF`
0.123

Field entry: `LVSSYVPFFFAL`
0.664

Field entry: `RLRHPPRLSTLC`
0.629

Field entry: `TVHVIVVCRELA`
0.39

Field entry: `CVCPFCVWVSCL`
0.51

Field entry: `SVVYCRMRVHFV`
0.373
